Assay: Clearance in Sprague-Dawley rat at 2 mg/kg, iv
Assay type: ADME, organism-based
Parameters: dose 2 mg/kg, route intravenous
Conditions: in vivo
Measure: clearance (mL/min/kg)

Cc1ccccc1S(=O)(=O)NCCc1c(CCCc2ccc(C(=O)O)cc2)c2cc(Cl)ccc2n1C(c1ccccc1)c1ccccc1 : 10.3

[I] O=C(O)c1ccc(CCCc2c(CCNS(=O)(=O)c3ccccc3Br)n(C(c3ccccc3)c3ccccc3)c3ccc(Cl)cc23)cc1
[II] O=C(O)c1ccc(OCCc2c(CCNS(=O)(=O)c3c(Cl)cccc3Cl)n(C(c3ccccc3)c3ccccc3)c3ccc(Cl)cc23)cc1
[III] O=C(O)c1ccc(OCCc2c(CCNS(=O)(=O)c3ccccc3Cl)n(C(c3ccccc3)c3ccccc3)c3ccc(Cl)cc23)cc1
[IV] O=C(O)c1ccc(CCCc2c(CCNS(=O)(=O)c3ccccc3-c3ccccc3)n(C(c3ccccc3)c3ccccc3)c3ccc(Cl)cc23)cc1
// ranking: key=clearance, reverse=True Answer with the labels in sequence, matching the requested order.
III, II, I, IV
